- System tested: T1, huCD98hc ECD Avi-His (human, UniProt P08195 105-529)
- T1 construct: biotinylated on the Avi tag where captured on streptavidin; also called Human CD98-AVI-His; Human CD98hc-AVI-His
- T1 sequence: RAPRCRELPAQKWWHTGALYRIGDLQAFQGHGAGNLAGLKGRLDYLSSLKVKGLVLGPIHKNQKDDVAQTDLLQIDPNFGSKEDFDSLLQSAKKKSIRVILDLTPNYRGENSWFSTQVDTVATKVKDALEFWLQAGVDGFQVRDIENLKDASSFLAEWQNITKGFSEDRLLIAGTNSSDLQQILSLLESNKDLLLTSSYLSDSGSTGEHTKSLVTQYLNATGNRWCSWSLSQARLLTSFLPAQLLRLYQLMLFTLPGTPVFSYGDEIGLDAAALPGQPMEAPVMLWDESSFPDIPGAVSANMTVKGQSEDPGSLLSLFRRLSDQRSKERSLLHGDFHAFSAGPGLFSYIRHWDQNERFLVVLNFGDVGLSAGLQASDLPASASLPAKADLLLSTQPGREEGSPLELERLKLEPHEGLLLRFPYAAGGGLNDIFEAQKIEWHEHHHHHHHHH
- Assay details: ELISA, hybridoma supernatant

[
  {
    "Binder": "CD98HC.04.009 (antibody, V domains shown, hybridoma IgG) VH: QVQLKESGPGLVAPSQSLSITCTVSGFSLTSYGVHWVRQPPGKGLEWLGVIWAGGSTYYNSALMSRLSISKDNAKSQVLLKMSSLQTDDTAMYYCARDNYGGVYLDVWGAGTTVTVSS VL: ENVLTQSPASMSASPGEKVTMTCRASSSVSSSYLHWYQQKSGASPKLWIYSTSNLASGVPARFSGSGSGTSYSLTISSVEAEDAATYYCQQYSGYPLTFGSGTKLEIK",
    "OD450": 0.991
  },
  {
    "Binder": "CD98HC.04.018 (antibody, V domains shown, hybridoma IgG) VH: QIQLVQSGPELKKPGETVKISCKASGYTFRNYGMNWVKQAPGKGLKWMGWINTYTGEPTYAEDFKGRFAFSLETSASTAYLQINKLKNEDEATYFCARGEAHWYFDVWGAGTTVTVSS VL: QIVLTQSPAIMSASLGERVTMTCTASSSVSSSYLYWYQQKPGSSPKLWIYSIFNLASGVPARFSGSGSGTSYSLTISSMEAEDAATYYCHQYHRSPPTFGGGTKLEIK",
    "OD450": 1.64
  },
  {
    "Binder": "CD98HC.04.058 (antibody, V domains shown, hybridoma IgG) VH: QVQLQQSGAELVRPGVSVKISCKASGYTFTDHTMHWVKQSHARSLEWIGVISTYFGDASYNPKFKGKATMTVDKSSNTAYMELARLTSEDSAIYYCARVGGRLRLGYYFDYWGQGTTLTVSS VL: NIMMTQSPSSLAVSAGEKVTMNCKSSQTVLYSSNQKNYLAWYQQKPGQSPKLLIYWASTRESGVPDRFTGSGSGTDFTLTISSVQVEDLAVYYCHQYLSSYTFGGGTKLEIK",
    "OD450": 1.34
  }
]

meta.source: patent US20250270341A1
